system: MIA PaCa-2; assay: Concentration required to inhibit the colony formation of pancreatic human (PACA) cell lines by 50%; format: functional, cell-based
pIC50: −log10 of the molar value.
property name: pIC50

Worked cases, answers included:
{"compound": "CCCC(=O)OCOC(=O)C(C)(C)C [AN-9]", "property name": "pIC50", "measurement": 4.52}
{"compound": "CC1=C(/C=C/C(C)=C/C=C/C(C)=C/C(=O)O)C(C)(C)CCC1 [TRETINOIN]", "property name": "pIC50", "measurement": 5.02}

[a] CCCC(=O)O [BUTYRIC ACID]
[b] CCCC(=O)OCOC(=O)/C=C(C)/C=C/C=C(C)/C=C/C1=C(C)CCCC1(C)C
Q: Higher pIC50: a or b ? I would appreciate it if you answered with the label of your choice.
A: b
(b: 5.40, a: 3.60)

###

test system: HL-60; assay: In vitro for the differentiation induction activity determined in the human myeloid leukemic cell line HL-60; format: functional; details: read-out: ED50 (the source's name)
pEC50: −log10 of the molar value.
property name: pEC50

[1] CCCC(=O)OCOC(=O)/C=C(C)/C=C/C=C(C)/C=C/C1=C(C)CCCC1(C)C
[2] CC1=C(/C=C/C(C)=C/C=C/C(C)=C/C(=O)O)C(C)(C)CCC1 [TRETINOIN]
[3] CCCC(=O)O [BUTYRIC ACID]
Q: In this exercise, place the 3 compounds in ascending sequence of their recorded pEC50. // respond by listing labels in the order requested
A: 3, 2, 1
